B1: glmS ribozyme (parent)
chain: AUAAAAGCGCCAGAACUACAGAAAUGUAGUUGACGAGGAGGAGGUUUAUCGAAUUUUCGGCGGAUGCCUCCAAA

- Variants of: B1
- test: self-cleavage kobs at 2500 uM GlcN6P; higher = faster cleavage; RNA array
- stated-conditions: with glucosamine-6-phosphate
Fewer inactive variants are shown than the library holds.
readout: self-cleavage kobs at 2500 uM GlcN6P

Give the value of self-cleavage kobs at 2500 uM GlcN6P reported for the following: C58A G62C
< 1e-05 s⁻¹

Fill in reported self-cleavage kobs at 2500 uM GlcN6P for this entry: G13A G32C G43C C68G
0.000154 s⁻¹

Return self-cleavage kobs at 2500 uM GlcN6P (reported value) for this variant: G32A A33U C68G C71G
9.26e-05 s⁻¹

Identify self-cleavage kobs at 2500 uM GlcN6P associated with the variant U55G G63U U65G
< 1e-05 s⁻¹

Entry U47A U54C needs its self-cleavage kobs at 2500 uM GlcN6P filled in; supply it.
0.014 s⁻¹

Determine from records and report self-cleavage kobs at 2500 uM GlcN6P for G41A U49C
< 1e-05 s⁻¹

Note self-cleavage kobs at 2500 uM GlcN6P for the variant shown: G35U G66U
< 1e-05 s⁻¹

Give the measured self-cleavage kobs at 2500 uM GlcN6P for A15G G29U U47G U54A
0.000248 s⁻¹

Specify self-cleavage kobs at 2500 uM GlcN6P for A42G G43U and stop.
< 1e-05 s⁻¹

Output measured self-cleavage kobs at 2500 uM GlcN6P for this item: G35A G37A U46A G51C G59U
< 1e-05 s⁻¹

Identify measured self-cleavage kobs at 2500 uM GlcN6P corresponding to A12U C16U G43C G62C C70U
< 1e-05 s⁻¹

Return self-cleavage kobs at 2500 uM GlcN6P (reported value) for this variant: A6C G41A
< 1e-05 s⁻¹

Give the reported value of self-cleavage kobs at 2500 uM GlcN6P for this record: A6C U69C
4.93e-05 s⁻¹

Supply self-cleavage kobs at 2500 uM GlcN6P value. Item: G9U G63C G66U C70A
< 1e-05 s⁻¹

Identify measured self-cleavage kobs at 2500 uM GlcN6P corresponding to A6G G37A G66U C70U
< 1e-05 s⁻¹

Identify the reported self-cleavage kobs at 2500 uM GlcN6P for the following entry. A15G U31C
0.00542 s⁻¹

Name the recorded self-cleavage kobs at 2500 uM GlcN6P of the item C34G G35C G66A in your answer.
< 1e-05 s⁻¹

Using known records, supply self-cleavage kobs at 2500 uM GlcN6P for A12G U46G G59U
< 1e-05 s⁻¹

Quickly give me recorded self-cleavage kobs at 2500 uM GlcN6P for C34U C50A U69C
0.000135 s⁻¹

Query self-cleavage kobs at 2500 uM GlcN6P for C8G C50G
0.000123 s⁻¹

Fill in reported self-cleavage kobs at 2500 uM GlcN6P for this entry: G7U G44C
< 1e-05 s⁻¹

Tell me self-cleavage kobs at 2500 uM GlcN6P reported for A15G G66U
0.00161 s⁻¹

// fetch self-cleavage kobs at 2500 uM GlcN6P given entry A15C A64G C68A
< 1e-05 s⁻¹

Tell us which self-cleavage kobs at 2500 uM GlcN6P value is on record for C11A C50A C68G
6.2e-05 s⁻¹

Identify measured self-cleavage kobs at 2500 uM GlcN6P corresponding to G38U U57A G60C G66U
< 1e-05 s⁻¹

Respond only with self-cleavage kobs at 2500 uM GlcN6P recorded for A33C U56C
< 1e-05 s⁻¹

Identify self-cleavage kobs at 2500 uM GlcN6P associated with the variant G9A A12G A14G G35U
< 1e-05 s⁻¹

Tell me measured self-cleavage kobs at 2500 uM GlcN6P for C8U G32U C50G please.
0.000269 s⁻¹

Please indicate self-cleavage kobs at 2500 uM GlcN6P recorded for G13U G29U
0.000161 s⁻¹

In one line, give reported self-cleavage kobs at 2500 uM GlcN6P of the entry C34A G59A C70A .
< 1e-05 s⁻¹

Item A6U A14U A33G C61U : provide self-cleavage kobs at 2500 uM GlcN6P
< 1e-05 s⁻¹

Find the measured self-cleavage kobs at 2500 uM GlcN6P of G29U G51A A64U U69G and report it.
0.000294 s⁻¹

Answer with the recorded self-cleavage kobs at 2500 uM GlcN6P for the variant listed here: A36C U54G
< 1e-05 s⁻¹

Give self-cleavage kobs at 2500 uM GlcN6P for the following variant: A14C G29U
0.000556 s⁻¹

Return self-cleavage kobs at 2500 uM GlcN6P (reported value) for this variant: G7C C67U
< 1e-05 s⁻¹

Indicate the recorded self-cleavage kobs at 2500 uM GlcN6P value for this variant: C10A U57A A64G C67G C71A
8.51e-05 s⁻¹

Quick one: give measured self-cleavage kobs at 2500 uM GlcN6P for A15G A36G G44U
< 1e-05 s⁻¹

Using known records, supply self-cleavage kobs at 2500 uM GlcN6P for A42C G43U A48G G62C C67A C70G
< 1e-05 s⁻¹

Give a short answer stating reported self-cleavage kobs at 2500 uM GlcN6P for A6U C50U .
< 1e-05 s⁻¹

Assign self-cleavage kobs at 2500 uM GlcN6P to the following record: C8A G51U C61U
< 1e-05 s⁻¹

Supply recorded self-cleavage kobs at 2500 uM GlcN6P for G35A G41C U69A here.
< 1e-05 s⁻¹
